Each record here notes measured inhibition.
assay: Inhibition of soil urease assessed as urea-N level at 1% compound level measured after 27 hr; conditions: concentration not given here
Provide the reading as a plain figure in %.

Please review the entries below; each comes with its answer.
| COMPOUND | inhibition [%] |
| --- | --- |
| S=C1CCCC2=C1C(c1ccccc1)c1c(ccc3ccccc13)O2 (stereo not given) | 22 |
| CC1(C)CC(=S)C2=C(C1)Oc1ccc3ccccc3c1C2c1cccs1 (stereo not given) | -8 |
| COc1ccccc1C1C2=C(CC(C)(C)CC2=S)Oc2ccc3ccccc3c21 (stereo not given) | 6 |
| O=[N+]([O-])c1ccc(C2C3=C(CCCC3=S)Oc3ccc4ccccc4c32)cc1 (stereo not given) | -1 |

Let us move to another entry and its inhibition.
Prompt line: Check the records and state inhibition for CC1(C)CC(=S)C2=C(C1)Oc1ccc3ccccc3c1C2c1ccc(F)cc1 (stereo not given)
Response line: 0

###

// reported inhibition for each item listed
test: Inhibition of soil urease assessed as urea-N level at 1% compound level measured after 27 hr; conditions: concentration not given here
Report the figure in % without appending any unit label.

Past entries and their recorded results:
| MOLECULE | UNIT SYMBOL | inhibition |
| --- | --- | --- |
| CC1(C)CC(=S)C2=C(C1)Oc1ccc3ccccc3c1C2c1cccc(Br)c1 (centres undefined) | % | 6 |
| S=C1CCCC2=C1C(c1cccc(Cl)c1)c1c(ccc3ccccc13)O2 (centres undefined) | % | 2 |
| CC1(C)CC(=S)C2=C(C1)Oc1ccc3ccccc3c1C2c1ccc2ccccc2c1 (centres undefined) | % | 3 |

Prompt line: Indicate the recorded inhibition value for this molecule: S=C1CCCC2=C1C(c1ccccc1Br)c1c(ccc3ccccc13)O2 (centres undefined)
Response line: -2

###

test system: Fusarium oxysporum; test: Antifungal activity against Fusarium oxysporum by food poison technique; type: functional; conditions: read-out: ED50 (the source's name)
EC50 strictly less than 300 µg/mL = YES. Otherwise NO.

Below are worked cases with known answers.
| COMPOUND | GROUP LABEL |
| --- | --- |
| CC1(C)CC(=S)C2=C(C1)Oc1ccc3ccccc3c1C2c1ccc2ccccc2c1 (stereo not given) | YES |
| CC1(C)CC(=S)C2=C(C1)Oc1ccc3ccccc3c1C2c1cccc(Br)c1 (stereo not given) | NO |
| S=C1CCCC2=C1C(c1ccccc1)c1c(ccc3ccccc13)O2 (stereo not given) | YES |
| CCCCC(O)(Cn1cncn1)c1ccc(Cl)cc1Cl (stereo not given) [HEXACONAZOLE] | YES |
| CC1(C)CC(=S)C2=C(C1)Oc1ccc3ccccc3c1C2c1ccccc1 (stereo not given) | NO |
| CC1(C)CC(=S)C2=C(C1)Oc1ccc3ccccc3c1C2c1cccs1 (stereo not given) | NO |
| COc1cc(C2C3=C(CC(C)(C)CC3=S)Oc3ccc4ccccc4c32)ccc1O (stereo not given) | NO |
| COc1ccc(C2C3=C(CC(C)(C)CC3=S)Oc3ccc4ccccc4c32)cc1 (stereo not given) | YES |
| CC1(C)CC(=S)C2=C(C1)Oc1ccc3ccccc3c1C2c1ccc(F)cc1 (stereo not given) | YES |
| CC1(C)CC(=S)C2=C(C1)Oc1ccc3ccccc3c1C2c1ccc(Cl)cc1 (stereo not given) | YES |

Prompt line: Is the reported EC50 for Cc1ccc(C2C3=C(CC(C)(C)CC3=S)Oc3ccc4ccccc4c32)cc1 (stereo not given) strictly below 300 µg/mL?
Response line: NO

Prompt line: In the record for S=C1CCCC2=C1C(c1ccccc1Br)c1c(ccc3ccccc13)O2 (stereo not given) , is EC50 less than 300 µg/mL?
Response line: YES

Prompt line: For this compound, is EC50 lower than 300 µg/mL? S=C1CCCC2=C1C(c1cccc(Cl)c1)c1c(ccc3ccccc13)O2 (stereo not given)
Response line: NO

Prompt line: I wonder whether COc1ccccc1C1C2=C(CC(C)(C)CC2=S)Oc2ccc3ccccc3c21 (stereo not given) has EC50 below 300 µg/mL. Can you tell?
Response line: NO

Prompt line: Given the entry O=[N+]([O-])c1ccc(C2C3=C(CCCC3=S)Oc3ccc4ccccc4c32)cc1 (stereo not given) , would its reported EC50 be below 300 µg/mL?
Response line: NO
